growth inhibition by entry:
experiment_description: NCI Yeast Anticancer Drug Screen. Data for the mec2-1 strain (AID 157)
experimental_conditions: S. cerevisiae mec2-1 strain, at 33.0 µM, active compounds read high
About 79,000 compounds went through this panel and 15% of them were active in at least one assay; those are over-represented in the sample as a whole. Activity calls are given as the source filed them. No stated cut-off is given here; in the data, active means growth inhibition above about 70%; inactive means the rest.
recorded_metric: growth inhibition

compound	endpoint_value
O=C(NCCCCNCCCNC(=O)c1cc(-c2ccccc2)nc2ccccc12)c1cc(-c2ccccc2)nc2ccccc12	56% (inactive)
O=C1C2C=CC1C1C(=O)OC(=O)C21 (stereo not drawn)	-51% (inactive)
CN1c2ccc(Cl)cc2C(=O)NC1c1ccc([N+](=O)[O-])s1 (stereo not drawn)	93% (active)
CC(Br)C(=O)c1ccc2cc(Br)c3ccccc3c2c1 (stereo not drawn)	6% (inactive)
CC1CCN(CCC(=O)c2ccc(Cl)cc2)CC1	17% (inactive)
CCCCCCc1cc(C(=O)OC/C(C)=N/NC(N)=O)c2ccccc2n1	-3% (inactive)
C[Si](C)(C)CNC(=O)OCc1ccccc1	1% (inactive)
c1ccc2c(c1)-c1nc3ccccc3cc1C2N1CCOCC1 (stereo not drawn)	5% (inactive)
Cc1ccc(-n2cc(-c3ccc(Cl)cc3)c(C#N)c2N)cc1	-4% (inactive)
CCCCCCCCC/C=C/C=C/C(=O)NCC(=O)NC1C(O)C(O)C(Nc2ncnc3nc[nH]c23)OC1C(O)CO (stereo not drawn)	-11% (inactive)
O=C1NC(=O)C2C3C=CC(C3)C12 (stereo not drawn)	1% (inactive)
CCC/C(Cl)=N\OC(=O)Nc1ccc(Br)cc1	98% (active)
CC(=O)OCC(=O)C1(O)CCC2C3CCC4CCCCC4(C)C3CCC21C (stereo not drawn)	41% (inactive)
Cn1c(=O)c(-c2ccccc2)c(N=[N+]=[N-])c2ccccc21	87% (active)
Cc1ccc(Nc2nc3c(=O)n(C)c(=O)n(C)c3nc2Nc2ccc(C)cc2)cc1	-4% (inactive)
CC[n+]1ccc2c(C)c3[nH]c4ccc(O)cc4c3c(C)c2c1	6% (inactive)
N#Cc1ccc(C2NN=CC23C(=O)c2ccccc2OC3c2ccccc2)cc1 (stereo not drawn)	-4% (inactive)
CC1=C(C)Cc2c(O)ccc(O)c2C1	-4% (inactive)
O=C1OC(=O)C2CCCC3CCCC1C32 (stereo not drawn)	95% (active)
CCCCCCCCCCCCCCC(C(=O)[O-])[n+]1ccccc1 (stereo not drawn)	-2% (inactive)
C/C(=N\O)C1CC2C=C(C#N)C1N(Cc1ccccc1)C2 (stereo not drawn)	4% (inactive)
CC(C)NC(=O)OCc1c(COC(=O)NC(C)C)c(-c2ccc(Cl)c(Cl)c2)n2c1CCC2	-53% (inactive)
CCc1ccc(NS(=O)(=O)c2ccccc2)c([N+](=O)[O-])c1	27% (inactive)

====

experiment_description: NCI Yeast Anticancer Drug Screen. Data for the bub3 strain (AID 167)
experimental_conditions: S. cerevisiae bub3 mutant strain, at 50.0 µM (retest, dose inferred, filed as 5.0), active compounds read high
About 79,000 compounds went through this panel and 15% of them were active in at least one assay; those are over-represented in the sample as a whole.
Record true (1) whenever growth inhibition is at 80% or higher; record false (0) when lower.

compound	class_name
O=[N+]([O-])c1ccc(=S)[nH]c1	true (1)
CC(C)(C)c1nc2c(o1)C(=O)c1ccccc1C2=O	true (1)
S=C(S)NN1CCOCC1	false (0)
CN(C)Cc1cc(N=Nc2ccc(Cl)cc2)cc(CN(C)C)c1O	false (0)
c1ccc2c(c1)c1ncccc1c1nccnc21	false (0)
O=C(O)c1cccc(-c2c3ccc(=O)cc-3oc3cc(O)ccc23)c1	false (0)
CN=C(N)N/N=C/c1ccc2c(c1)Cc1ccccc1-2	true (1)
C/C(=N\NC(=S)N1CCCCC1)c1cccc(C)n1	true (1)
CSC(=S)Nc1cccc(C)n1	false (0)
CC1(C)[C@@H]2CC[C@]1(C)[C@H](OC(=O)CSC#N)C2	true (1)
CCN(CC)CC(O)c1ccc2ccc3ccccc3c2c1 (stereo not given)	false (0)
CCCCCCCCCCCCCC[N+](C)(CC(=O)[O-])Cc1ccccc1 (stereo not given)	true (1)
c1ccc(-c2nc3cccnc3s2)cc1	false (0)
Cc1ccc(C2C(Cl)C(=O)N2n2cnc3ccccc3c2=O)cc1 (stereo not given)	true (1)
Fc1ccc(NC(=S)SCc2ccc3c(c2)OCO3)cc1F	true (1)
CN(CCc1ccccn1)c1ccc2c(c1)Cc1ccccc1-2	false (0)
COC1C=COC2(C)Oc3c(C)c(O)c4c(c3C2=O)/C(=N/C2CCC(O)OC2C)C=C(NC(=O)/C(C)=C\C(=O)C2CC2C(O)C(C)C(O)C(C)C(OC(C)=O)C1C)C4=O (stereo not given)	false (0)
O=C1c2ccccc2-c2n[nH]c3cccc1c23	true (1)
O=C(NCCCCCCCN1CCCCCCC1)C(C1CCCCC1)C1CCCCC1	true (1)
c1ccc2c(c1)NC(NC1Nc3ccccc3N1)N2	false (0)
Cc1ccc(CCC2=CCCc3c2ccc2ccccc32)cc1	true (1)
CCC/C(Cl)=N\OC(=O)Nc1cccc(C(F)(F)F)c1	true (1)

====

experiment_description: NCI Yeast Anticancer Drug Screen. Data for the wt2 strain (AID 169);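 further: 0% = growth of vehicle-treated yeast cultures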
experimental_conditions: S. cerevisiae wt2 strain growth inhibition; at 100.0 µM; active compounds read high
The panel holds about 79,000 compounds, 15% with a hit somewhere; the sample as a whole holds those more often.
growth inhibition by entry:

item_smiles	u	growth inhibition
S=C(N/N=C/c1ccccn1)Nc1ccc(Cl)cc1	%	39
CCOC(=O)c1cc(-c2ccc(Cl)cc2)c([N+](=O)[O-])n1C	%	97
O=[N+]([O-])c1cc(CCl)ccc1CCl	%	99
COc1ccc(/C(C)=N/OC(=O)c2c(-c3ccccc3Cl)noc2C)cc1CN1CCOCC1	%	65
c1ccc2c(c1)c1ncccc1c1nccnc21	%	22

====

experiment_description: NCI Yeast Anticancer Drug Screen. Data for the mec2-1 strain (AID 157)
experimental_conditions: S. cerevisiae mec2-1 strain, at 11.0 µM, active compounds read high
About 79,000 compounds went through this panel and 15% of them were active in at least one assay; those are over-represented in the sample as a whole.

compound	growth inhibition, %
O=C1c2ccccc2-c2n[nH]c3cccc1c23	-5
CC1=C(SCCO)C(=O)c2ccccc2C1=O	0
O=C(O)c1ccccc1NC(=S)c1ccccc1	-26
CC(C)(Br)C(=O)/C=C/c1ccc(Cl)c(Cl)c1	-1
O=[n+]1c2ccc(Cl)cc2n([O-])c2ccc(Cl)cc21	2
CSC1=NNC(SC)=NN1	15
CN1CCc2ccccc2C1Cc1ccccc1NC(=O)c1sc2ccccc2c1Cl (stereo not drawn)	-2
Cc1ccc(S(=O)(=O)NC(=O)NC2=NC(C)(C)N(c3ccc(Cl)c(Cl)c3)C(N)=N2)cc1	4
CC(=O)OCc1ccc(O)c(C=O)c1	-29
COc1ccc2c(c1)C(=O)c1ccccc1C2	-1
N/C(=N\OC(=O)NC(Cl)=C(Cl)Cl)c1cc(C(F)(F)F)cc(C(F)(F)F)c1	-32
Cc1ccc(CCC2=CCCc3c2ccc2ccccc32)cc1	-5
O=C(OCC=C1CCCC1)c1cc([N+](=O)[O-])cc([N+](=O)[O-])c1	13
COC(=O)CCNc1c2ccccc2nc2cccc([N+](=O)[O-])c12	98
S=C(N/N=C(/c1ccccc1)c1ccccn1)N1CCCCCC1	4
O=C1NC(=O)C2C3C=CC(C3)C12 (stereo not drawn)	1
CCCCc1cc(O)ccc1O	1
O=C1OC(CCl)CN1/N=C/c1ccc([N+](=O)[O-])o1 (stereo not drawn)	0
OC(COc1cccc2ccccc12)CN1CCOCC1 (stereo not drawn)	23
COCCOC(=O)CCn1cc(F)c(=O)[nH]c1=O	13
O=[N+]([O-])c1ccc([N+]2=NC(c3ccccc3)=NN(c3ccccc3)C2)cc1	0
CCCCCCCCCCCC1=C(O)C(=O)C=C(O)C1=O	63
CC(CC(C)(C)[N+](C)(C)C)[N+](C)(C)C (stereo not drawn)	-4
COc1ccc2nc3c([N+](=O)[O-])ccc(NCCN(C)C)c3c(NCCN(C)C)c2c1	-5
OCC(Cn1cncn1)(c1ccc(F)cc1F)n1cncn1 (stereo not drawn)	53
CCC(=O)c1cccc2ccccc12	-2
Cc1c(C(Cc2ccccc2N(C)C(=O)/C=C\C(=O)O)c2c[nH]c3ccccc23)c2ccccc2n1C (stereo not drawn)	-5
CCC(=O)Oc1c(Cl)cc(Cl)c2ccccc12	-2
O=C(/C=C/c1cccc(Br)c1)c1cccs1	75
CCCCCCc1cc(C(=O)OC/C(C)=N/NC(N)=O)c2ccccc2n1	-6
COP(=O)(OC)/C(=C\C1=CN(C(c2ccccc2)(c2ccccc2)c2ccccc2)CN1)NC=O	30
CC(=O)OCC(=O)C1(O)CCC2C3CCC4CCCCC4(C)C3CCC21C (stereo not drawn)	14
O=C1C=CC(=C(c2ccccc2)c2ccccc2)c2ccccc21	1
O=c1c2ccccc2ncn1COCc1ccccc1	-11
COc1cc(C2c3cc4c(cc3OC(NNc3ccccc3)C2C)OCO4)cc(OC)c1OC (stereo not drawn)	16
COc1ccc(O)c(/C=N\Nc2ccccc2)c1	-5
COc1cc(CC2CC(c3ccc4c(c3)OCO4)OC2=O)cc(OC)c1OC (stereo not drawn)	2
O=C1C2C(C(=O)N1c1ccc(OCc3ccccc3)cc1)C1c3ccccc3C2C2CCCCN21 (stereo not drawn)	-6
O=C1C2C=CC1C1C(=O)OC(=O)C21 (stereo not drawn)	-44
O=C1CSc2cc([N+](=O)[O-])ccc2N1	-10
O=C(O)c1cccc(-c2c3ccc(=O)cc-3oc3cc(O)ccc23)c1	36
CC[C@@]1(O)C(=O)OCc2c1cc1n(c2=O)Cc2cc3c(CN(C)C)c(O)ccc3nc2-1	-1
Cc1cc(I)ccc1N	-2
CCC/C(Cl)=N\OC(=O)Nc1ccc(Br)cc1	77
NCCNc1ccc(NCCN)c2c1C(=O)c1c(O)ccc(O)c1C2=O	13
COc1ccc2nc3cccc([N+](=O)[O-])c3c(NCCN(CCO)CCO)c2c1	95
COC(=O)c1ccc([N+](=O)[O-])c(O)c1	-4
[N-]=N[N+]#I1OC(C(F)(F)F)(C(F)(F)F)c2ccccc21	99
